target: HLA-DRB1*1501 (human); assay: competition binding

Binder	IC50, nM
TQFVRFDSDAASQRM [peptide p7 (residues 31-45 of HLA-A2)]	374
